Entries and their measured growth follow.
# Test system: HT29 colon
# EXPERIMENTAL_PROTOCOL: NCI-60 one-dose screen, 48 h (100 = growth as untreated, 0 = no growth, -100 = all killed)
# ASSAY_CONDITIONS: 10 µM unless noted
# Procedure: Growth inhibition of the HT29 human tumor cell line is measured as a screen for anti-cancer activity. Cells are grown in 96 well plates and exposed to the test compound for 48 hours. Compounds are tested at a single concentration, which is 10^-5 M for most compounds. The reported endpoint is percent growth (GI% or GIPRCNT), where numbers from 0 - 100% represent growth inhibition, and numbers from -100% - 0 represent cell death. For example, a value of 40 represents 60% growth inhibition. […]
Compounds without any hit were thinned out: in the full panel of roughly 83,000, 20% have a hit.
Field: numeric (%). Do not append units.

Examples from the recorded data:
# ENTRY_SMILES, growth (%)
measured = [
    ("Cc1nc(Nc2ccccn2)sc1C(=O)/C=C/c1ccc(Cl)cc1", 5.45),
    ("CCOC(=O)CSc1c(-c2ccccc2)c2cc(Cl)ccc2[nH]c1=O", 105),
    ("CCOC(=O)c1cc2c(n1Cc1cc(OC)c(OC)c(OC)c1)-c1oncc1CCC2", 4.59),
    ("COc1nccc2cc3c(=O)n4c(cc5ccccc54)c(=O)n3c12", 112),
]

Alright, here's another compound for you.
Dear colleague, please send me the reported growth for COc1ccc(-c2cc(=O)c3c(OC)c4ccoc4c(/C=C/C=O)c3o2)cc1 when you can. 79.1
